Exercise: for every item that follows, state its recorded nuclei count.
assay: reduction of polyQ htt aggregates in cells – imaging, exon1htt(103Q)mCFP cells, high-content imaging, primary screen (AID 483); settings: exon1htt(103Q)mCFP cell line, aggregate imaging, at 2 µM; measured here: cell count, toxicity;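 note: compound exposure lasted 3 days before fixation; percent of the per-plate median nuclei count of sample wells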

Give its nuclei count value. Item: `COc1ccc(-c2coc3cc(O)cc(O)c3c2=O)cc1`
116%

O=C1CSC(c2cccc(F)c2)N1c1ccccc1F (configuration not stated) , same question.
118%

`COC(=O)c1ccccc1NC(=O)c1cc(-c2ccc(OC)c(OC)c2)on1` , same question.
104%

`Oc1c(Cl)cc(Cl)cc1Sc1cc(Cl)cc(Cl)c1O` , same question.
90%

`CCCCOc1ccc(NC(=O)Cn2c(=O)ccc3c(C)cc(C)nc32)cc1` , same question.
88.5%

`CCNc1nc(NCC)n2c(SCc3nc4ccccc4c(=O)[nH]3)nnc2n1` , same question.
84.7%

`N#C/C(C(=O)N1CCOCC1)=C1/SC=C(c2ccccc2)N1c1ccccc1` , same question.
96.2%

`Clc1ccccc1-c1nnc2sc(-c3ccccn3)nn12` , same question.
84.8%

`CCNc1nc(N2CCCCC2)nc(-n2nnc(C(=O)OCC)c2C)n1` , same question.
92.5%

`CSc1nc(N2CCOCC2)c2c(c1C#N)CCCCC2` , same question.
117%

`COc1cccc(CN(C)CC(=O)NC(=O)NCc2ccco2)c1` , same question.
101%

`C=C(C)COc1ccc(-c2nc(N)ncc2Oc2ccccc2OCC)c(O)c1` , same question.
111%

`O=C(CSc1nnc(-c2cccnc2)o1)Nc1ccccn1` , same question.
99.4%

`CCOCC(=O)Nc1nc2ccc(OC)cc2s1` , same question.
102%

O=C(O)C1C2CCC(C2)C1C(=O)NCCCn1ccnc1 (configuration not stated) , same question.
72.3%

COC(=O)c1nc2n(n1)C(c1ccc(OC)c(OC)c1)C(C(=O)OC1CCCCC1)=C(C)N2 (configuration not stated) , same question.
99.2%

`O=C(NCc1ccc(F)cc1)c1cc(-c2ccco2)on1` , same question.
92%
